Entry source: the supplement of paper PMC9112550

# System: Escherichia coli TOP10;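 further: peptides expressed intracellularly from a pBAD plasmid library in pooled LB shake-flask culture, induced with 0.3% L-arabinose, DNA abundance read by NGS, three biological replicates, DESeq2 with apeglm shrinkage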
# Assay overview: shrunken log2 fold change of peptide-encoding DNA abundance (4.5 h post-induction vs induction); higher = less antimicrobial activity (less host growth inhibition)
# Experimental conditions: time post-induction: 4.5 h; library: site-saturation at positions 5, 18, 19, 20
Think of -0.05 as a floor: if shrunken log2 fold change stands on it or above, it is criterion met; beneath it, criterion not met.

[[record]]
residue_string = "RRIRCRPPRLPRPRPRPCRQPRP"
answer_label = "criterion met"

[[record]]
residue_string = "RRIRMRPPRLPRPRPRPCFRPRP"
answer_label = "criterion met"

[[record]]
residue_string = "RRIRERPPRLPRPRPRPHRSPRP"
answer_label = "criterion not met"

[[record]]
residue_string = "RRIRFRPPRLPRPRPRPFHAPRP"
answer_label = "criterion not met"

[[record]]
residue_string = "RRIRNRPPRLPRPRPRPMPDPRP"
answer_label = "criterion met"

[[record]]
residue_string = "RRIRSRPPRLPRPRPRPEVHPRP"
answer_label = "criterion met"

[[record]]
residue_string = "RRIRTRPPRLPRPRPRPPICPRP"
answer_label = "criterion met"

[[record]]
residue_string = "RRIRKRPPRLPRPRPRPDATPRP"
answer_label = "criterion met"

[[record]]
residue_string = "RRIRKRPPRLPRPRPRPIERPRP"
answer_label = "criterion met"

[[record]]
residue_string = "RRIRPRPPRLPRPRPRPCSGPRP"
answer_label = "criterion met"


Check if shrunken log2 fold change >= -0.05 (inclusive). Item: RRIRIRPPRLPRPRPRPNYKPRP criterion not met

Could you please find out whether RRIRWRPPRLPRPRPRPWFCPRP has shrunken log2 fold change that meets -0.05 or exceeds it? criterion not met

Is shrunken log2 fold change at least -0.05? Consider RRIRMRPPRLPRPRPRPIEDPRP criterion met

Check this sequence for shrunken log2 fold change at or above -0.05: RRIRERPPRLPRPRPRPQFTPRP criterion not met

Determine whether this sequence has shrunken log2 fold change no lower than -0.05: RRIRNRPPRLPRPRPRPLVGPRP criterion met

Evaluate RRIRERPPRLPRPRPRPEPYPRP : shrunken log2 fold change at minimum -0.05? criterion not met

Check the entry RRIRGRPPRLPRPRPRPEKPPRP : does shrunken log2 fold change equal or exceed -0.05? criterion met

Kindly determine if shrunken log2 fold change recorded for RRIRCRPPRLPRPRPRPEPLPRP is above or exactly -0.05. criterion met

hey, is shrunken log2 fold change for this one >= -0.05? RRIRKRPPRLPRPRPRPCMKPRP criterion met

Hello, I need to know if RRIRPRPPRLPRPRPRPEYVPRP has measured shrunken log2 fold change not below -0.05. Thanks! criterion met

# check: shrunken log2 fold change of RRIRMRPPRLPRPRPRPENVPRP is greater than or equal to -0.05 criterion met

API: above_or_equal(metric=shrunken log2 fold change, cutoff=-0.05) for item RRIRFRPPRLPRPRPRPHVIPRP criterion not met

Hi team, for RRIRCRPPRLPRPRPRPFAFPRP , is the recorded shrunken log2 fold change at or above -0.05? criterion not met

# bool: shrunken log2 fold change of RRIRIRPPRLPRPRPRPPMKPRP >= -0.05 criterion not met

API: above_or_equal(metric=shrunken log2 fold change, cutoff=-0.05) for item RRIRYRPPRLPRPRPRPVPNPRP criterion not met

Hi, just wondering whether RRIRGRPPRLPRPRPRPLAGPRP shows shrunken log2 fold change of -0.05 or higher. criterion met

Please tell me: is the sequence RRIRLRPPRLPRPRPRPTHDPRP at or over -0.05 in terms of shrunken log2 fold change? criterion met

Please check the record RRIRQRPPRLPRPRPRPLQYPRP and state if its shrunken log2 fold change is at or above -0.05. criterion met

Entry RRIRDRPPRLPRPRPRPVQPPRP : is its shrunken log2 fold change no less than -0.05? criterion met

Decide: is the reported value of shrunken log2 fold change for RRIRCRPPRLPRPRPRPHSRPRP equal to or greater than -0.05? criterion met

Quick check: does RRIRRRPPRLPRPRPRPYKKPRP have shrunken log2 fold change greater than or equal to -0.05? criterion met

State whether the measured shrunken log2 fold change reaches -0.05, counting equality as reaching it, for RRIRQRPPRLPRPRPRPHENPRP criterion met

Determine whether this sequence has shrunken log2 fold change no lower than -0.05: RRIRIRPPRLPRPRPRPSKLPRP criterion not met

Check this sequence for shrunken log2 fold change at or above -0.05: RRIRVRPPRLPRPRPRPKQIPRP criterion met

Please tell me: is the sequence RRIRKRPPRLPRPRPRPAANPRP at or over -0.05 in terms of shrunken log2 fold change? criterion met

For this sequence, is measured shrunken log2 fold change -0.05 or higher? RRIRHRPPRLPRPRPRPCTIPRP criterion not met

Check the entry RRIRCRPPRLPRPRPRPVYMPRP : does shrunken log2 fold change equal or exceed -0.05? criterion not met
